Reference source: patent US10670605B2

target: cysteines in MDA-MB-231 and Ramos cells (Homo sapiens, UniProt Q9Y696); assay: Competitive isoTOP-ABPP in situ (fragment-treated cells); assay type: cell-based; conditions: 200 μM, insitu, 231
Sequence (Q9Y696 whole entry, the tested form may be a part): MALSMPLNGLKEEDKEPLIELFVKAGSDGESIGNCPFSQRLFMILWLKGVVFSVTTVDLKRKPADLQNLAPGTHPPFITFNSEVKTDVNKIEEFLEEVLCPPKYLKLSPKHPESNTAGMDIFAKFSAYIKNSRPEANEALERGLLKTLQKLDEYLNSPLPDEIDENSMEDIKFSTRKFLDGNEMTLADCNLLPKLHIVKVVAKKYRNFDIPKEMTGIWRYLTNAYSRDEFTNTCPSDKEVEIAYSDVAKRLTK
With a cut-off of 1, any isoTOP-ABPP ratio Q9Y696_C35 strictly below it is called t; any isoTOP-ABPP ratio Q9Y696_C35 meeting it or above is called f.

Solved entries:
compound	discreteLabel
O=C(CCl)NCCc1c[nH]c2ccccc12 [compound 13]	f
C=CC(=O)N(Cc1cccnc1)c1cc(C(F)(F)F)cc(C(F)(F)F)c1 [compound 31]	t
CC1CCc2ccccc2N1C(=O)CCl (centres unmarked) [compound 45]	f
O=C(CCl)NC12CC3CC(CC(C3)C1)C2 [compound 21]	f
Cc1ccc(C=C(C#N)C(=O)NCCN2CCOCC2)cc1 [compound 41]	t

Below 1 on isoTOP-ABPP ratio Q9Y696_C35? Entry COc1ccccc1OCCNC(=O)CCl [compound 28] f

isoTOP-ABPP ratio Q9Y696_C35 strictly < 1 for this compound? O=C(CCl)N1CCN(S(=O)(=O)c2ccccc2F)CC1 [compound 10] f

Does the reported isoTOP-ABPP ratio Q9Y696_C35 of the following compound sit strictly below 1? O=C(CCl)NC(=O)NC12CC3CC(CC(C3)C1)C2 [compound 12] f

In plain terms, does O=C(CCl)Nc1cccc2ncccc12 [compound 51] come in under 1 for isoTOP-ABPP ratio Q9Y696_C35? f

---

molecular target: cysteines in MDA-MB-231 and Ramos cells (Homo sapiens); assay: Competitive isoTOP-ABPP in situ (fragment-treated cells); assay type: cell-based; details: 200 μM, insitu, ramos
readoutName: isoTOP-ABPP ratio Q86SX6_C67
Answers are plain numbers.

molecule	isoTOP-ABPP ratio Q86SX6_C67
O=C(CCl)NCCc1c[nH]c2ccccc12 [compound 13]	12.4
O=C(CCl)N1CCN(CC(=O)N2CCOCC2)CC1 [compound 29]	1.2
C=CC(=O)N(Cc1cccnc1)c1cc(C(F)(F)F)cc(C(F)(F)F)c1 [compound 31]	0.7

Let us examine a further case.
State its isoTOP-ABPP ratio Q86SX6_C67: O=C(CCl)N1CCN(S(=O)(=O)c2ccccc2F)CC1 [compound 10] 1.1

---

Exercise: state measured isoTOP-ABPP ratio Q96T76_C848 for each of the compounds provided.
Molecular target: cysteines in MDA-MB-231 and Ramos cells (Homo sapiens, UniProt Q96T76)
Sequence (Q96T76 1-1030): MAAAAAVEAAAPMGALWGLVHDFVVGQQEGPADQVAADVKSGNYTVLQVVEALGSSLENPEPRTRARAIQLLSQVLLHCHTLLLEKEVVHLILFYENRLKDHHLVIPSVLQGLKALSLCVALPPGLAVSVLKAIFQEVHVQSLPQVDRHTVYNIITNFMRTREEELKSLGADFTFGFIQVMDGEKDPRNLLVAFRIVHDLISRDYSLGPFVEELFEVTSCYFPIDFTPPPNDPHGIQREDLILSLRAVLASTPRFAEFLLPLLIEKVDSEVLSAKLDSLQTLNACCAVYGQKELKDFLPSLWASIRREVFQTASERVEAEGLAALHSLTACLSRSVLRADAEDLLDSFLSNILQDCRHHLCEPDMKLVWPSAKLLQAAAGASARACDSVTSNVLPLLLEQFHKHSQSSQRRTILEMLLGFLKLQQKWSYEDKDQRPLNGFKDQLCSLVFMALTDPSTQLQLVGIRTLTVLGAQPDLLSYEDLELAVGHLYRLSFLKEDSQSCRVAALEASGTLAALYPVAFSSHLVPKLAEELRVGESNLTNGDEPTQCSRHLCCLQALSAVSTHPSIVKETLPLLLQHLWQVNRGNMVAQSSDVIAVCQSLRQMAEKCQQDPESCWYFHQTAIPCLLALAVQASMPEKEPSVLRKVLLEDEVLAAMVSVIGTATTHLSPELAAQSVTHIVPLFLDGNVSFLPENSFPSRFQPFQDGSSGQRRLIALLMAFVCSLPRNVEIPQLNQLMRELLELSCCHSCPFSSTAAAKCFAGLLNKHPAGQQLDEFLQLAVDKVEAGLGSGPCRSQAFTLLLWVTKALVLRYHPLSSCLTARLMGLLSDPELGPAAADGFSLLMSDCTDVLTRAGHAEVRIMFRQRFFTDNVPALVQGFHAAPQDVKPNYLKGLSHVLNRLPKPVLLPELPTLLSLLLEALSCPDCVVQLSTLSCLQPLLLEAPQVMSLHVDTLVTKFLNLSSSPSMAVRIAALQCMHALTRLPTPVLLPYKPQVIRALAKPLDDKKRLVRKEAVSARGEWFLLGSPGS
Experiment: Competitive isoTOP-ABPP in situ (fragment-treated cells)
Format: cell-based
Conditions: 200 μM, insitu, 231
Numbers only.

compound	isoTOP-ABPP ratio Q96T76_C848
CC1CCc2ccccc2N1C(=O)CCl (stereo not drawn) [compound 45]	20.0
O=C(CCl)NC(=O)NC12CC3CC(CC(C3)C1)C2 [compound 12]	20.0
O=C(CCl)N1CCN(S(=O)(=O)c2ccccc2F)CC1 [compound 10]	2.5
CC(C)CCOCCNC(=O)CCl [compound 27]	0.5
COc1ccccc1OCCNC(=O)CCl [compound 28]	0.8

Using the record for O=C(CCl)NCCc1c[nH]c2ccccc12 [compound 13] , state its measured isoTOP-ABPP ratio Q96T76_C848. 0.6

---

biological target: USP22 C171 (Q9UPT9) (Homo sapiens, UniProt Q9UPT9); experiment: Competitive isoTOP-ABPP, cell lysates; format: binding; settings: 500 μM, invitro, ramos
Sequence (Q9UPT9 whole entry): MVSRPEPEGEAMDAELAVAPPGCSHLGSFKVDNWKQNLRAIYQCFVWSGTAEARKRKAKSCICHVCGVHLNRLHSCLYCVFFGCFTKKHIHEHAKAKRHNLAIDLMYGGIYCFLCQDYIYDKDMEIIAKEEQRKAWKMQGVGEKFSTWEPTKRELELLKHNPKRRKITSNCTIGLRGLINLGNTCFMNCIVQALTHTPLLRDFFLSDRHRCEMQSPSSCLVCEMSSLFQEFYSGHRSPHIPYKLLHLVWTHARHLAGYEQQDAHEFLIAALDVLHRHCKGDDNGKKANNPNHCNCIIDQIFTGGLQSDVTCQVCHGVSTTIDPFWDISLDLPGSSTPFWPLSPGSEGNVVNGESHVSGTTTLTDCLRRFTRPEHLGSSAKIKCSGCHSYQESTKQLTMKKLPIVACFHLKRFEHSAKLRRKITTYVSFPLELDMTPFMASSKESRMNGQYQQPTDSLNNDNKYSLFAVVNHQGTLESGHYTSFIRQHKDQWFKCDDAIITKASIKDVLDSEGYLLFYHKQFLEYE
readoutName: isoTOP-ABPP ratio, Q9UPT9_C171
Answers are plain numbers.

recordSmiles	readoutName	dataValue
O=C(CCl)NC(=O)NC12CC3CC(CC(C3)C1)C2	isoTOP-ABPP ratio, Q9UPT9_C171	4.1
Cn1cc(S(=O)(=O)N2CCOCC2)cc1C(=O)NC(=O)CCl	isoTOP-ABPP ratio, Q9UPT9_C171	8.2

Dear colleague, could you please provide isoTOP-ABPP ratio, Q9UPT9_C171 for the molecules listed below?
1. O=C(CCl)N1CCN(S(=O)(=O)c2ccccc2F)CC1
2. C=CC(=O)N(c1ccccc1)c1ccc(Br)cc1
3. O=C(CCl)NCCc1c[nH]c2ccccc12

1. 3.8
2. 20.0
3. 0.8

---

biological target: cysteines in MDA-MB-231 and Ramos cells (Homo sapiens, UniProt Q9BVC5); assay: Competitive isoTOP-ABPP in situ (fragment-treated cells); format: cell-based; conditions: 200 μM, insitu, 231
Sequence (Q9BVC5 whole entry, the tested form may be a part): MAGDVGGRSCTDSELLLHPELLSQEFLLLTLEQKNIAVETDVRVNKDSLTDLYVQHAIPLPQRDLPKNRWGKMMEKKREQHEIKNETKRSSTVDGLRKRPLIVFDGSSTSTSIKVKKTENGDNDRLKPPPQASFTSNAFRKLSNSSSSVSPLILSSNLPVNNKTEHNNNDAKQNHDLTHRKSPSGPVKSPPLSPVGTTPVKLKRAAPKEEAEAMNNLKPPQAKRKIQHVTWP
Label rule, in plain words: isoTOP-ABPP ratio Q9BVC5_C10 of 1 and up is class 1, under 1 is class 0.

molecule	discreteLabel
O=C(CCl)NC(=O)NC12CC3CC(CC(C3)C1)C2	class 1
COc1ccccc1OCCNC(=O)CCl	class 0
CC(C)CCOCCNC(=O)CCl	class 1

State whether the measured isoTOP-ABPP ratio Q9BVC5_C10 reaches 1, counting equality as reaching it, for `O=C(CCl)NCCc1c[nH]c2ccccc12` class 1

Evaluate `C=CC(=O)Nc1cc(F)c(N2CCN(C(=O)OC(C)(C)C)CC2)c(F)c1` : isoTOP-ABPP ratio Q9BVC5_C10 at minimum 1? class 0

Evaluate `O=C(CCl)NC12CC3CC(CC(C3)C1)C2` : isoTOP-ABPP ratio Q9BVC5_C10 at minimum 1? class 1

Decide: is the reported value of isoTOP-ABPP ratio Q9BVC5_C10 for CC1CCc2ccccc2N1C(=O)CCl (stereo not shown) equal to or greater than 1? class 1

// inclusive: isoTOP-ABPP ratio Q9BVC5_C10 at least 1? input: `O=C(CCl)N1CCN(S(=O)(=O)c2ccccc2F)CC1` class 1

---

molecular target: STAT3 C259 (P40763) (Homo sapiens); assay: Competitive isoTOP-ABPP, cell lysates; assay type: binding; conditions: 500 μm in-vitro ramos
Sequence (P40763 whole entry): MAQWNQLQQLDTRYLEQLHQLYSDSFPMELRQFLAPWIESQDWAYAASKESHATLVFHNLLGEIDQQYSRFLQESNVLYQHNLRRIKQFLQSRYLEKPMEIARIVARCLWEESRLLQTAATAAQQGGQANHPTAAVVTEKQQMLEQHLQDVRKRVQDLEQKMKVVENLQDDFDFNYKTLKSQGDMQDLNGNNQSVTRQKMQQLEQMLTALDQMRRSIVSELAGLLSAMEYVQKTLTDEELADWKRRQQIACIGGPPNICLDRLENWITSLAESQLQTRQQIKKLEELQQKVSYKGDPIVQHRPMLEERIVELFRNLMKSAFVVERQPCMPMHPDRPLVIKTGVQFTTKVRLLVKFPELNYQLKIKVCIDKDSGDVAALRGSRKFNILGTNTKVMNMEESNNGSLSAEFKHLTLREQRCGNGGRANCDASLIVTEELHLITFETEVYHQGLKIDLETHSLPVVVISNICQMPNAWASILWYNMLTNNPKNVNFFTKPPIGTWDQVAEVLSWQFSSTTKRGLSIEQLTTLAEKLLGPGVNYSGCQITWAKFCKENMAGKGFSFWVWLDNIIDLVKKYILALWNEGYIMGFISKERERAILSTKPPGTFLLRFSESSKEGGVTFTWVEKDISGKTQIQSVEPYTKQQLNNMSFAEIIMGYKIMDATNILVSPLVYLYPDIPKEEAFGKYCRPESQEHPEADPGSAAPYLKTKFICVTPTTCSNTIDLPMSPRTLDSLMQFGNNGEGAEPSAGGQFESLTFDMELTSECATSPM
Label met for high-side isoTOP-ABPP ratio (reactivity profile), P40763_C259 (at or above 2) and not met for low-side isoTOP-ABPP ratio (reactivity profile), P40763_C259 (below it).

Known results for molecules:
molecule	discreteLabel
CC(Br)C(=O)Nc1cc(C(F)(F)F)cc(C(F)(F)F)c1 (stereo not drawn)	not met
O=C(CCl)NC12CC3CC(CC(C3)C1)C2	met
COc1ccccc1OCCNC(=O)CCl	not met
C=CC(=O)N(Cc1cccnc1)c1ccc(Oc2ccccc2)c(C(F)(F)F)c1	not met
O=C(CCl)N1CCC(C(O)(c2ccccc2)c2ccccc2)CC1	met

I'd appreciate it if you could say whether `N#C/C(=C\c1cc(C(F)(F)F)cc(C(F)(F)F)c1)C(N)=O` has isoTOP-ABPP ratio (reactivity profile), P40763_C259 at least equal to 2. not met

---

target: cysteines in MDA-MB-231 and Ramos cells (Homo sapiens); assay: Competitive isoTOP-ABPP in situ (fragment-treated cells); format: cell-based; conditions: 200 μM, insitu, 231
readoutName: isoTOP-ABPP ratio P25205_C119
One number for each entry.

For each entry beneath this line, provide reported isoTOP-ABPP ratio P25205_C119.
1. C=CC(=O)Nc1cc(F)c(N2CCN(C(=O)OC(C)(C)C)CC2)c(F)c1
2. O=C(CCl)N1CCN(S(=O)(=O)c2ccccc2F)CC1
3. C=CC(=O)N(Cc1cccnc1)c1cc(C(F)(F)F)cc(C(F)(F)F)c1
4. O=C(CCl)NC(=O)NC12CC3CC(CC(C3)C1)C2
5. O=C(CCl)Nc1cccc2ncccc12
6. CC1CCc2ccccc2N1C(=O)CCl (stereo not shown)
7. CC(C)CCOCCNC(=O)CCl

[0.9, 2.3, 0.5, 1.0, 2.6, 6.2, 1.0]

Look up isoTOP-ABPP ratio P25205_C119 for the entries below, preserving their order.
1. O=C(CCl)NC12CC3CC(CC(C3)C1)C2
2. Cc1ccc(C=C(C#N)C(=O)NCCN2CCOCC2)cc1

[1.1, 0.9]

Provide only the value of recorded isoTOP-ABPP ratio P25205_C119 for `O=C(CCl)NCCc1c[nH]c2ccccc12` 1.1
